assay: Solubility assessment of (R)-Trolox in 12 solvents at 40° C.; type: physicochemical; details: organic solvent or mixture, thermodynamic from solid, solvent EtOH
observable: solubility (mg/mL)
// note: answer is a bare numeric in mg/mL

Given item Cc1c(C)c2c(c(C)c1O)CCC(C)(C(=O)O)O2 (racemic) [(R)-Trolox] , the value recorded as its solubility is 494

* * *

assay: Solubility assessment of (R)-Trolox in 12 solvents at 40° C.; assay type: physicochemical; details: organic solvent or mixture, thermodynamic from solid, solvent ACN
observable: solubility (mg/mL)
Lab book: enter the figure in mg/mL, no units written.

solubility in this record for Cc1c(C)c2c(c(C)c1O)CCC(C)(C(=O)O)O2 (racemic) [(R)-Trolox] : 195

* * *

test: Solubility assessment of (R)-Trolox in 12 solvents at 40° C.; format: physicochemical; settings: organic solvent or mixture, thermodynamic from solid, solvent IPAc
observable: solubility
Reply with the number and its unit after it.

In plain terms, Cc1c(C)c2c(c(C)c1O)CCC(C)(C(=O)O)O2 (racemic) [(R)-Trolox] has a documented solubility of 252 mg/mL

* * *

assay: Solubility assessment of (R)-Trolox in 12 solvents at 40° C.; assay type: physicochemical; details: organic solvent or mixture, thermodynamic from solid, solvent 5% water/ACN
observable: solubility (mg/mL)
# number only, unit mg/mL dropped from output

So for Cc1c(C)c2c(c(C)c1O)CCC(C)(C(=O)O)O2 (racemic) [(R)-Trolox] , the logged solubility turned out to be 459

* * *

test: Solubility assessment of (R)-Trolox in 12 solvents at 40° C.; format: physicochemical; details: organic solvent or mixture, thermodynamic from solid, solvent EtOAc
observable: solubility (mg/mL)
Entry rule: numbers only, all in mg/mL.

Consider Cc1c(C)c2c(c(C)c1O)CCC(C)(C(=O)O)O2 (racemic) [(R)-Trolox] . Its measured solubility is 209

* * *

test: Solubility assessment of (R)-Trolox in 12 solvents at 40° C.; format: physicochemical; details: organic solvent or mixture, thermodynamic from solid, solvent MeOH
observable: solubility (mg/mL)
The response must be a number in mg/mL with no trailing unit.

So, Cc1c(C)c2c(c(C)c1O)CCC(C)(C(=O)O)O2 (racemic) [(R)-Trolox] ? Its solubility was 1000

* * *

test: Solubility assessment of (R)-Trolox in 12 solvents at 40° C.; assay type: physicochemical; conditions: organic solvent or mixture, thermodynamic from solid, solvent 5% water/EtOH
observable: solubility (mg/mL)
Please give a number only; it is taken to be in mg/mL.

Per the record, Cc1c(C)c2c(c(C)c1O)CCC(C)(C(=O)O)O2 (racemic) [(R)-Trolox] has solubility of 854

Reference source for all entries: patent US20180002247A1
